Below: a set of entries, each annotated with reported EC50.
Molecular target: Human FXRα Ligand Binding Domain (Homo sapiens)
Construct: polyhistidine (pRSET-A vector leader) (N); made in house; host or cells: E. coli BL21 (DE3), pRSET-A vector
Sequence (Q96RI1 237-472 isoform Q96RI1-2): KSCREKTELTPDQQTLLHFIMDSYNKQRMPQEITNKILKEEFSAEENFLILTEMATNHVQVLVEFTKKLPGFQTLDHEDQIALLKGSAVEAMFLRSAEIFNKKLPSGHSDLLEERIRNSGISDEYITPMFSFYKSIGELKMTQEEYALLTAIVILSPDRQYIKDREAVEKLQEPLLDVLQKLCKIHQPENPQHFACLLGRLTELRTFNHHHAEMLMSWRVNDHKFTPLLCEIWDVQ
Test: FXR Cofactor Binding Assay (time resolved fluorescence, SRC-1 peptide recruitment)
Type: biochemical
Conditions: class symbols; read-out: Activity (pEC50) (converted)

| molecule | EC50 |
| --- | --- |
| CC(C)c1onc(-c2c(Cl)cccc2Cl)c1COc1ccc(-c2ccc3c(C(=O)O)n[nH]c3c2)cc1 | 1.02 to 10 µM |
| CC(C)c1onc(-c2c(Cl)cccc2Cl)c1COc1ccc(-c2ccc3c(=O)cc(C(=O)O)oc3c2)cc1 | 0.102 to 1 µM |
| CC(C)c1onc(-c2c(Cl)cccc2Cl)c1COc1ccc(Nc2cccc3ccc(C(=O)O)cc23)cc1 | 0.102 to 1 µM |
| CC(C)c1onc(-c2c(Cl)cccc2Cl)c1COc1ccc(Sc2cccc3sc(C(=O)O)cc23)cc1 | 0.102 to 1 µM |
| CC(C)c1onc(-c2c(Cl)cccc2Cl)c1COc1ccc(-c2nc3cccc(C(=O)O)c3[nH]2)cc1 | 1.02 to 10 µM |
| CC(C)c1onc(-c2c(Cl)cccc2Cl)c1COc1ccc(-c2ccc3sc(C(=O)O)cc3c2)cc1 | 0.102 to 1 µM |
| CC(C)c1onc(-c2c(Cl)cccc2Cl)c1COc1ccc(-c2ccc3cc(C(=O)O)[nH]c3c2)cc1 | 0.102 to 1 µM |
| CC(C)c1onc(-c2c(Cl)cccc2Cl)c1COc1ccc(-c2ccc3c(C(=O)O)csc3c2)cc1 | < 0.1 µM |
| CC(C)c1onc(-c2c(Cl)cccc2Cl)c1COc1ccc(-c2ccc3[nH]c(C(=O)O)cc3c2)cc1 | < 0.1 µM |
| CC(C)c1onc(-c2c(Cl)cccc2Cl)c1COc1ccc(-c2ccc3c(c2)CCCC3C(=O)O)cc1 (centres unmarked) | 0.102 to 1 µM |

// query Consider the molecule CC(C)c1onc(-c2c(Cl)cccc2Cl)c1COc1ccc(-c2ccc3oc(C(=O)O)cc3c2)cc1 and give its measured EC50.
// result < 0.1 µM

// query Consider the molecule CC(C)c1onc(-c2c(Cl)cccc2Cl)c1COc1ccc(-c2ccc3c(C(=O)O)c[nH]c3c2)cn1 and give its measured EC50.
// result 0.102 to 1 µM

// query Consider the molecule CC(C)c1onc(-c2c(Cl)cccc2Cl)c1COc1ccc(-c2ccc3oc(C(=O)O)cc(=O)c3c2)cc1 and give its measured EC50.
// result < 0.1 µM

// query Consider the molecule CC(C)c1onc(-c2c(Cl)cccc2Cl)c1COc1ccc(-c2ccc3c(c2)C(C(=O)O)CC3)cc1 (centres unmarked) and give its measured EC50.
// result 0.102 to 1 µM
